Each recorded value in this set is attributed to ChEMBL document CHEMBL2390921.

molecular target: hERG (KCNH2) (Homo sapiens, UniProt Q12809); assay: Displacement of [35S]-MK0499 from human ERG expressed in HEK293 cell membranes at 10 uM after 2 hrs by liquid scintillation counting analysis relative to control; conditions: membranes of HEK293 cells that express human ERG, probe [35S]-MK0499
Sequence (Q12809 whole entry): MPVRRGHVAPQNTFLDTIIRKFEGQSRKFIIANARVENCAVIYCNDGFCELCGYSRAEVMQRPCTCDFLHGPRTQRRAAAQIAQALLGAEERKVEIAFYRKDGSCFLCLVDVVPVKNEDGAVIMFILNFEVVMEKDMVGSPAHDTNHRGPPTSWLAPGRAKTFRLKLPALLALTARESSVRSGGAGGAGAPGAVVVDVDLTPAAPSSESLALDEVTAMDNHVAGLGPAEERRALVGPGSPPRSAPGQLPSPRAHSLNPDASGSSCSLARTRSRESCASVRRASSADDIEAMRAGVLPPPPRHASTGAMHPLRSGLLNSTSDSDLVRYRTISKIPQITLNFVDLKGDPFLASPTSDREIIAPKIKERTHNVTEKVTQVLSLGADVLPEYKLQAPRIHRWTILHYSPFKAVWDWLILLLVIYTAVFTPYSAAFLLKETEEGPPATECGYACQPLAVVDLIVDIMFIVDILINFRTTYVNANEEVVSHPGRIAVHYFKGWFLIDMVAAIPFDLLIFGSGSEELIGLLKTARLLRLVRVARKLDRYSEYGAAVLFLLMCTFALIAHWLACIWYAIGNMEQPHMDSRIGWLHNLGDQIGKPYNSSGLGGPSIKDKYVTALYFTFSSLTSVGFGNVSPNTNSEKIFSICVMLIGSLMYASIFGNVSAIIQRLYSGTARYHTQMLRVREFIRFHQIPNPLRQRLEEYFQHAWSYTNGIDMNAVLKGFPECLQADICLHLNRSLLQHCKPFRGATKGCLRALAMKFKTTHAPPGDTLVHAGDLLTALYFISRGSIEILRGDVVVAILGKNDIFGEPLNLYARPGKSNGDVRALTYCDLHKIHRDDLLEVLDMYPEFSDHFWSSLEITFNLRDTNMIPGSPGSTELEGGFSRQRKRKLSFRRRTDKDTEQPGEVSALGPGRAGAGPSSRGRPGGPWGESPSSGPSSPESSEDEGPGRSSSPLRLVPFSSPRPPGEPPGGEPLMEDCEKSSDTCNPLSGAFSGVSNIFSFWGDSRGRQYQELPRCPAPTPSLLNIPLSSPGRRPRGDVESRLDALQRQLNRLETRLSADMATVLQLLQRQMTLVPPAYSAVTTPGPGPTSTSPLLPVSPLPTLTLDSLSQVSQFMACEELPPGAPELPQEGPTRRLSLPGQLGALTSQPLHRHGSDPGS
# inhibition at 2 h, 10 µM values compiled below

1. CC1CC1N1C(=O)[C@H](NC(=O)[C@@H](Cc2ccccc2F)NC(=O)C2CC2C(F)(F)F)CCc2c(F)c(F)cc(F)c21 (some centres not stated) ... 54%

Task: Quote inhibition at 2 h, 10 µM reported for `CC(C)N1C(=O)[C@H](NC(=O)[C@@H](Cc2ccccc2OC(F)(F)F)NC(=O)OC(C)(C)C)CCc2ccc(F)cc21` please.
Result: 26%

Task: Identify measured inhibition at 2 h, 10 µM corresponding to O=C(N[C@H](Cc1ccccc1F)C(=O)N[C@@H]1CCc2c(F)c(F)cc(F)c2N(C2CC2)C1=O)C1CC1C(F)(F)F (some centres not stated)
Result: 26%

Task: Answer with the recorded inhibition at 2 h, 10 µM for the compound listed here: `CC(C)N1C(=O)[C@H](NC(=O)[C@@H](Cc2ccccc2OC(F)(F)F)NC(=O)OC(C)(C)C)CCc2cc(F)cc(F)c21`
Result: 21%

Task: Annotate the compound CC1CC1C(=O)N[C@H](Cc1ccccc1F)C(=O)N[C@@H]1CCc2c(F)c(F)cc(F)c2N(C(C)C)C1=O (some centres not stated) with its measured inhibition at 2 h, 10 µM.
Result: 0%

Task: Note inhibition at 2 h, 10 µM for the compound shown: `CC(C)N1C(=O)[C@H](NC(=O)[C@@H](Cc2ccccc2F)NC(=O)c2ccccn2)CCc2c(F)c(F)cc(F)c21`
Result: 22%

Task: Give the reported inhibition at 2 h, 10 µM for this compound. `CC(C)N1C(=O)[C@H](NC(=O)[C@@H](Cc2ccccc2F)NC(=O)c2ccc(F)cc2C(F)(F)F)CCc2cc(F)cc(F)c21`
Result: 34%
